The values you see were collected from ChEMBL document CHEMBL2380217.

The entries below come with measured pKi values attached.
- study-system: Cannabinoid receptor 1 (Mus musculus, UniProt P47746)
- Sequence (P47746 whole entry): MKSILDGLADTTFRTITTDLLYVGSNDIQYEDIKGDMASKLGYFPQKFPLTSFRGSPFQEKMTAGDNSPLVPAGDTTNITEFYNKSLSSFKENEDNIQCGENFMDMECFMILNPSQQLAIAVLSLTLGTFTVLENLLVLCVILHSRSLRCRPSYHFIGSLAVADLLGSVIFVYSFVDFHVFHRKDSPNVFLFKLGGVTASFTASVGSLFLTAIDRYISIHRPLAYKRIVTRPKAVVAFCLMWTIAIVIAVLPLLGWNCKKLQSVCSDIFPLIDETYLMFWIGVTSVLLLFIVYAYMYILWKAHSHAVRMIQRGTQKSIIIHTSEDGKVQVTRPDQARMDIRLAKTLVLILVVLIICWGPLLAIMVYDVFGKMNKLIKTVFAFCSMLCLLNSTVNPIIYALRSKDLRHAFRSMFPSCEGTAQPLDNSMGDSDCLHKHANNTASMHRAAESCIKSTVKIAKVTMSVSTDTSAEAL
- measurement-notes: Agonist activity at CB1 receptor in mouse Neuro2a cells assessed as inhibition of forskolin-stimulated adenylyl cyclase activity after 15 mins by liquid scintillation spectrophotometry
pKi: −log10 of the molar value.
measured-attribute: pKi

In [3]: df
Out[3]:
                           substance_smiles                              study_system  quantitative_result
0    CCCCn1cc(C(=O)c2cccc3ccccc23)c2ccccc21  Cannabinoid receptor 1 (Mus musculus, UniProt P47746)                 7.89
1  CCCCn1cc(C(=O)c2cccc3ccccc23)c2cccc(O)c21  Cannabinoid receptor 1 (Mus musculus, UniProt P47746)                 7.62

* * *

// values below are reported Activity
- study-system: Cannabinoid receptor 2 (Mus musculus)
- measurement-notes: Displacement of [3H]CP-55940 from mouse […] CB2 receptor at 1 uM after 90 mins by scintillation counting analysis
- Format: tissue-based
measured-attribute: Activity (%)

                            substance_smiles                           study_system  quantitative_result
 0    CCCCn1cc(-c2ccc3ccccc3c2)c2cccc(OC)c21  Cannabinoid receptor 2 (Mus musculus)                   91
 1  CCCCn1cc(C(=O)c2cccc3ccccc23)c2cc(O)ccc21  Cannabinoid receptor 2 (Mus musculus)                   91
 2  CCCCn1cc(C(=O)Cc2cccc3ccccc23)c2cccc(O)c21  Cannabinoid receptor 2 (Mus musculus)                   21
 3  CCCCn1cc(C(=O)Cc2ccc(F)c(F)c2)c2cccc(OC)c21  Cannabinoid receptor 2 (Mus musculus)                   80
 4  CCCCn1cc(C(=O)Cc2ccc(F)cc2)c2cccc(CC)c21  Cannabinoid receptor 2 (Mus musculus)                   88
 5  CCCCn1cc(C(=O)Cc2ccc(OC)cc2)c2cccc(OC)c21  Cannabinoid receptor 2 (Mus musculus)                   64
 6   CCCCn1cc(C(=O)c2ccc(F)cc2)c2cccc(OC)c21  Cannabinoid receptor 2 (Mus musculus)                   99
 7  CCCCn1cc(C(=O)Cc2cccc(F)c2F)c2cccc(OC)c21  Cannabinoid receptor 2 (Mus musculus)                   97
 8  CCCCn1cc(C(=O)Cc2ccc(F)cc2)c2cccc(OC)c21  Cannabinoid receptor 2 (Mus musculus)                   80
 9  CCCCn1cc(C(=O)c2cccc3ccccc23)c2cccc(O)c21  Cannabinoid receptor 2 (Mus musculus)                   90
10      CCCCn1cc(C(=O)Cc2ccccc2)c2cccc(O)c21  Cannabinoid receptor 2 (Mus musculus)                   20

* * *

- study-system: Cannabinoid receptor 2 (Mus musculus) (UniProt P47936)
- Sequence (P47936 whole entry): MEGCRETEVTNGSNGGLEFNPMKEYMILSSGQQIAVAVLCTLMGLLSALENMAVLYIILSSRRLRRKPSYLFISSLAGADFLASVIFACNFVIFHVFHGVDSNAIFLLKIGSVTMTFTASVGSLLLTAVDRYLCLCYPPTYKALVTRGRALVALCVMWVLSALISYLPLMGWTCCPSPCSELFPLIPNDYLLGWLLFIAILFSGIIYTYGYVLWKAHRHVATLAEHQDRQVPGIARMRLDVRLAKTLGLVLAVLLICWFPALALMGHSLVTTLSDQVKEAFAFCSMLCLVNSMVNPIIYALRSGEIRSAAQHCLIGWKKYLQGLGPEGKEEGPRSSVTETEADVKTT
- measurement-notes: Displacement of [3H]CP-55940 from mouse […] CB2 receptor at 1 uM after 90 mins by scintillation counting analysis
- Assay type: tissue-based
Friendly reminder: Activity below 90% is t, at or above is f.

>>> print(df.to_string())
                           substance_smiles  category_label
0  COc1cccc2c(C(=O)c3cccc4ccccc34)cn(CCN3CCOCC3)c12               f
1  CCCCn1cc(C(=O)c2cccc3ccccc23)c2cccc(OC)c21               f
2    CCCCn1cc(-c2cccc3ccccc23)c2cccc(OC)c21               f
3   CCCCn1cc(C(=O)Cc2ccc(F)cc2)c2cccc(O)c21               t
4   CCCCn1cc(C(=O)Cc2ccc(O)cc2)c2cccc(O)c21               t
5    CCCCn1cc(C(=O)Cc2ccccc2F)c2cccc(OC)c21               f
6    CCCCn1cc(Cc2cccc3ccccc23)c2cccc(OC)c21               f
